Tested target: Rap guanine nucleotide exchange factor 3 (Homo sapiens)
Assay info: Counterscreen qHTS for antagonist of cAMP-regulated guanine nucleotide exchange factor 3 (EPAC1) (AID 1645888);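 also: fluorescence loss as bound BODIPY-GDP is released from Rap1B; % of control where 0% means no effect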
Run parameters: Rap1B-BODIPY-GDP nucleotide exchange, fluorescence; series mostly up to 154 µM
Results filed as inconclusive are left out. Activity calls are given as the source filed them. Calls follow the shape of the dose curve; as a rule, active = well fitted inhibition curve with a large enough effect; inconclusive = small, poorly fitted or top-dose-only effect; inactive = no such curve, though single readings can be large or run the other way.
Reported metric: activity change, negative = inhibition

// below: answered compounds
Cc1ccc(C)c2nc3sc(C(=O)N4CCCc5ccccc54)c(N)c3cc12 = inactive
COc1ccccc1C(CCN(Cc1ccccc1)C(C)=O)c1ccco1 (stereo unspecified) = -15.7% [at 30.8 µM] (inactive)
CCCCc1ccc(NC(=O)CN2C(=O)C3CCCCC3C2=O)cc1 (stereo unspecified) = inactive
Cc1ccc(Cl)cc1N1CCN(C(=O)c2ccc(C)c(-n3c(C)nc4cccnc43)c2)CC1 = inactive
COc1cccc2c1C(=O)c1c(O)c3c(c(O)c1C2=O)CC(O)(C(C)=O)CC3OC1CC(N(C)C)C(O)C(C)O1 (stereo unspecified) = 80.1% [at 30.8 µM] (inactive)

So for O=S(=O)(c1ccc(Cl)cc1Br)N1CCCCC1 , the logged activity change, negative = inhibition turned out to be -6.37% [at 30.8 µM] (inactive)

So for COc1ccc(NC(=O)c2cc(-c3cc(Cl)ccc3C)n[nH]2)cn1 , the logged activity change, negative = inhibition turned out to be inactive

So for O=C1OC(Cc2ccccc2)(c2ccccc2)c2ccccc21 (stereo unspecified) , the logged activity change, negative = inhibition turned out to be inactive

So for CC(C)(C)N(NC(=O)Nc1ccc(F)cc1)C(=O)c1ccccc1 , the logged activity change, negative = inhibition turned out to be -14.2% [at 30.8 µM] (inactive)

So for CCN(CC)c1ccc(C=C2SC(=S)NC2=O)cc1 , the logged activity change, negative = inhibition turned out to be inactive

So for C=C(C)Cn1c(C)cc(C)c(S(=O)(=O)c2ccccc2C)c1=O , the logged activity change, negative = inhibition turned out to be -6.66% [at 30.8 µM] (inactive)

---

Tested target: DNA repair nuclease/redox regulator APEX1 (Homo sapiens) (UniProt P27695)
Sequence (P27695 whole entry, looked up): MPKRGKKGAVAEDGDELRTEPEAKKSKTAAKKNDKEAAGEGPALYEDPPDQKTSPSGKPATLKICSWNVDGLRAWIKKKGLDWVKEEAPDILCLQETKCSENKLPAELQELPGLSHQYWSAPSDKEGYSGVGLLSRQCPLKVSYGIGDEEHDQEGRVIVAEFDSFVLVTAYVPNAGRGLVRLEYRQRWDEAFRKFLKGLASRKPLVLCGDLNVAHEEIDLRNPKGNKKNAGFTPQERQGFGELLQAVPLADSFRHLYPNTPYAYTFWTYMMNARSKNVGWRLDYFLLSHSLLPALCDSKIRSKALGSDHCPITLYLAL
Assay info: qHTS Validation Assay for Inhibitors of the Human Apurinic/apyrimidinic Endonuclease 1 (APE1) (AID 1705)
Run parameters: purified APE1 endonuclease activity, fluorescence, titration; series mostly up to 57.1 µM
Results filed as inconclusive are left out. Calls of active or inactive are those of the source. The call rests on the fitted dose curve; in most records, active means well fitted inhibition curve with a large enough effect; inconclusive means small, poorly fitted or top-dose-only effect; inactive means flat fitted curve, though single readings scatter.
Pick one: true (1) (active), false (0) (inactive)

What call does the record list for CN1CCN(CC/C=C2/c3ccccc3Sc3ccc(S(=O)(=O)N(C)C)cc32)CC1 ?
false (0)

What call does the record list for Nc1nc(Cl)nc2c1ncn2[C@@H]1O[C@H](COP(=O)(O)OP(=O)(O)OP(=O)(O)O)[C@H](O)[C@H]1O ?
false (0)

What call does the record list for CC[C@H](C)C(=O)O[C@H]1CCC=C2C=C[C@H](C)[C@H](CC[C@@H]3C[C@H](O)CC(=O)O3)C21 (stereo partly drawn) ?
false (0)

What call does the record list for CC(=O)SC1CC2=CC(=O)CC[C@]2(C)C2CC[C@@]3(C)[C@@H](CC[C@@]34CCC(=O)O4)C12 (stereo partly drawn) ?
false (0)

What call does the record list for Cc1cc(N)c2ccccc2[n+]1CCCCCCCCCCCCCC[n+]1c(C)cc(N)c2ccccc21 ?
true (1)

What call does the record list for CC(=O)O[C@]1(C(C)=O)CC[C@H]2C3C=C(Cl)C4=CC(=O)[C@@H]5C[C@H]5[C@]4(C)C3CC[C@@]21C (stereo partly drawn) ?
false (0)

What call does the record list for C[C@H]1c2cccc(O)c2C(O)=C2C(=O)[C@]3(O)C(O)=C(C(N)=O)C(=O)C(N(C)C)[C@@H]3[C@@H](O)C21 (stereo partly drawn) ?
false (0)

What call does the record list for O=S(=O)(O)C1CCNCC1 ?
false (0)

---

Tested on: N140
Assay info: qHTS profiling for inhibitors of Plasmodium falciparum proliferation (AID 504749); also: nearly all actives have a fitted effect of over 60% in size
Run parameters: P. falciparum in erythrocytes, SYBR Green DNA, 72 h; series mostly up to 28.7 µM
Records with an inconclusive call do not appear. The source made the active and inactive calls. Calls come from the whole dose curve; as a rule, active = well fitted inhibition curve with a large enough effect; inconclusive = small, poorly fitted or top-dose-only effect; inactive = flat fitted curve, though single readings scatter. Bridge positions count the residues as written; N and C are the ends. Square brackets hold non-standard residues; d marks the D form. Peptide text beside a SMILES is read from it. * marks the point of attachment. Octanoyl(6-Me) = CCC(C)CCCCC(=O)*; Dab = NCC[CH](N)C(=O)O
Pick one: active, inactive

What call does the record list for CC1(C)S[C@@H]2[C@H](NC(=O)COc3ccccc3)C(=O)N2[C@H]1C(=O)O ?
inactive

What call does the record list for O=C(O)c1cc(O)c2c(c1)[C@H]([C@H]1c3cc(C(=O)O)cc(O)c3C(=O)c3c(O[C@@H]4OC(CO)C(O)C(O)C4O)cccc31)c1cccc(O[C@@H]3OC(CO)C(O)C(O)C3O)c1C2=O (some centres not stated) ?
inactive

What call does the record list for CO[C@@H]1[C@@H](OC2OC(C)C(OC3CC(C)(O)C(OC(=O)CC(C)C)C(C)O3)C(N(C)C)C2O)[C@@H](CC=O)C[C@@H](C)C(=O)/C=C\C2O[C@H]2C[C@@H](C)OC(=O)C[C@H]1OC(C)=O (some centres not stated) ?
active

What call does the record list for CC(C)CN(C[C@@H](O)[C@H](Cc1ccccc1)NC(=O)O[C@H]1CCOC1)S(=O)(=O)c1ccc(N)cc1 ?
inactive

What call does the record list for CCC(C)CCCCC(=O)NC(CCN)C(=O)NC(C(=O)NC(CCN)C(=O)NC1CCNC(=O)C(C(C)O)NC(=O)C(CCN)NC(=O)C(CCN)NC(=O)C(CC(C)C)NC(=O)C(Cc2ccccc2)NC(=O)C(CCN)NC1=O)C(C)O (configuration not stated) ({Octanoyl(6-Me)}-[Dab]T[Dab][Dab][Dab]FL[Dab][Dab]T; lactam 4-C; configuration not given here) ?
inactive

What call does the record list for CC(=O)OC1CC2CCC1(C)C2(C)C (configuration not stated) ?
inactive

What call does the record list for CN(C)CCCCCCN(C)C ?
inactive

What call does the record list for CC(=O)O[C@@]12CO[C@@H]1C[C@H](O)[C@@]1(C)C(=O)[C@H](O)C3=C(C)[C@@H](OC(=O)C(O)[C@@H](NC(=O)OC(C)(C)C)c4ccccc4)C[C@@](O)([C@@H](OC(=O)c4ccccc4)[C@H]21)C3(C)C (some centres not stated) ?
active

What call does the record list for CC(C)CN(C[C@@H](OP(=O)(O)O)[C@H](Cc1ccccc1)NC(=O)O[C@@H]1CCOC1)S(=O)(=O)c1ccc(N)cc1 ?
inactive

What call does the record list for S=C1NC=NC2N=CNC12 (configuration not stated) ?
inactive

What call does the record list for Cc1cc(CC(C)CC(C)(C)C)n(O)c(=O)c1 (configuration not stated) ?
active

What call does the record list for NC1=NC(S)C2N=CN=C2N1 (configuration not stated) ?
inactive

---

Tested target: Cytochrome P450 1A2 (Homo sapiens)
Assay info: p450-cyp1a2 (AID 410)
Run parameters: recombinant CYP1A2, luciferin-ME demethylation, luminescence; series mostly up to 57 µM
Records with an inconclusive call do not appear. The source made the active and inactive calls. Calls come from the whole dose curve.
Pick one: Y = active, N = inactive

What call does the record list for CN1CCN(c2ncc3nc(-c4cccs4)c(=O)n(CCc4ccccc4)c3n2)CC1 ?
Y

What call does the record list for COCCn1c(=O)c(-c2cccs2)nc2cnc(Oc3ccccc3)nc21 ?
Y

What call does the record list for COc1cccc(-c2ccc3ncnc(Nc4ccccc4)c3c2)c1 ?
Y

What call does the record list for COc1ccc2[nH]cc(CCNc3ncnc4ccc(-c5ccccc5OC)cc34)c2c1 ?
Y

What call does the record list for Cc1ccccc1-c1nc(Nc2ccncc2)c2ccccc2n1 ?
Y

What call does the record list for COc1ccccc1-c1ccc2ncnc(N3CCOCC3)c2c1 ?
Y

What call does the record list for CCNc1ncc2ncc(=O)n(Cc3ccc(F)cc3)c2n1 ?
Y

What call does the record list for COCCn1c(=O)c(-c2cc(F)cc(F)c2)nc2cnc(N3CCN(C)CC3)nc21 ?
Y

What call does the record list for O=c1cnc2cnc(Oc3ccccc3)nc2n1Cc1cccs1 ?
Y

What call does the record list for O=c1cc(O)cc(/C=C\c2ccc(O)c(O)c2)o1 ?
N

What call does the record list for CN(C)c1ccc(-c2cc(N(C)Cc3ccco3)ncn2)cc1 ?
Y

What call does the record list for Cc1noc(C)c1-c1nc(N2CCN(C)CC2)c2ccccc2n1 ?
Y

What call does the record list for COc1ccc(CNc2cc(-c3cccc(NS(C)(=O)=O)c3)ncn2)c(OC)c1 ?
Y

What call does the record list for c1cncc(CNc2nc(-c3cccnc3)nc3ccccc23)c1 ?
Y

What call does the record list for N#Cc1cccc(-c2nc(NCCN3CCOCC3)c3ccccc3n2)c1 ?
Y

What call does the record list for O=C1C=C(NCCc2cc(Br)c(O)c(Br)c2)C(=O)c2ncccc21 ?
Y

What call does the record list for COc1cccc(Nc2ncc3nc(-c4ccc(F)cc4)c(=O)n(CCC#N)c3n2)c1 ?
Y

What call does the record list for N#CCCn1c(=O)c(-c2cccc(C#N)c2)nc2cnc(Oc3cccc(Cl)c3)nc21 ?
N

What call does the record list for COc1ccc(Oc2ncc3nc(C)c(=O)n(Cc4cccs4)c3n2)cc1 ?
Y

What call does the record list for COc1ccc(-n2c(=O)c(-c3cccs3)nc3cnc(N4CCN(C)CC4)nc32)cc1 ?
Y

What call does the record list for COc1ccccc1CNc1ncncc1-c1ccccc1Cl ?
Y

What call does the record list for O=c1ccc2cc3ccoc3cc2o1 ?
Y

What call does the record list for COc1ccccc1-c1nc(NC2CC2)c2ccccc2n1 ?
Y
